Cited source: patent US9631041B2

- measurement notes: Prodrug hydrolysis / conversion into β-lap by HPLC at different pH
- Type: physicochemical
- experimental conditions: acetonitrile/buffered solution (30:70, v/v), pH 5, pH 5.0, room temperature; read-out: half-life of conversion into β-lap, t1/2 (pH 5.0) (converted)
outcome measure: half-life at 5 μmol/mL (h)
Give the number; h is assumed, so skip it.

Give its half-life at 5 μmol/mL value. Item: CC1(C)CCC2=C(O1)c1ccccc1/C(=N\c1ccc(N3C(=O)C=CC3=O)cc1)C2=O [prodrug (6)]
1.1

====

- measurement notes: Prodrug hydrolysis / conversion into β-lap by HPLC at different pH
- Format: physicochemical
- experimental conditions: hydrolysis study at neutral pH and acidic pH
outcome measure: pH sensitivity of hydrolysis

CC1(C)CCC2=C(O1)c1ccccc1[C@]1(OC[C@@](C)(CO)CO1)C2=O [prodrug (2)] | not pH-sensitive
CC1(C)CCC2=C(O1)c1ccccc1[C@]1(OC[C@](C)(CO)CO1)C2=O [prodrug (3)] | not pH-sensitive
CC(=O)N/N=C1\C(=O)C2=C(OC(C)(C)CC2)c2ccccc21 [prodrug (1)] | not pH-sensitive
